Reported pKd by item:
target-of-assay: T1, DLG3_1, Q92796
T1 sequence (Q92796 125-227, limits assumed, looked up): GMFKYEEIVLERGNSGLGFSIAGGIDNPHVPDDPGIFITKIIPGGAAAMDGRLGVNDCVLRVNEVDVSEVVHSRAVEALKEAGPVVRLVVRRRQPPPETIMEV
experiment-notes: holdup assay
Set-up: key: below the threshold = too weak to quantify, mostly under pKd 3.1 to 4
condition-parameters: plain residues with an end cap or a label only (N-terminal biotin on a linker: ttds)

binder: RLPKIKETTV [FRMPD4, Q14CM0]
pKd: 4.51
--
binder: KKYVDAETSL [SLC4A7, Q9Y6M7]
pKd: 3.49
--
binder: PVRVCEETSL [OTULIN, Q96BN8]
pKd: 3.75
--
binder: SKPTRRETEV [HPV35-E6, P27228]
pKd: 4.45
